subject.of.test: human ether-à-go-go-related gene (hERG) potassium channel (human)
measurement.description: primary screen, population patch clamp on CHO cells stably expressing hERG; higher = less effect of the substance;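 further: peak tail current of the secondary pulse compared with the same well before compound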
Among all 310,000 compounds or so, about 14,000 (4.5%) showed an effect of 50% or more. The effect is printed as a negative number. The sample holds strong results, similar compounds and a random draw of the others, so the mix is not that of the screen.
quantity.measured: hERG current change (%, negative = inhibition) at 10uM
Numeric answer plus unit only.

O=C(Cc1ccccc1)N/N=C/c1cccnc1    20.3%

Here are 2 compounds. What values of hERG current change (%, negative = inhibition) at 10uM were reported for them?
1. Cc1ccc(C(C)(C)C)cc1S(=O)(=O)Nc1ncnc2sccc12
2. Cc1c(C(=O)NCc2ccco2)cccc1[N+](=O)[O-]

["12.2%", "-6.07%"]

* * *

subject.of.test: human ether-à-go-go-related gene (hERG) potassium channel (human)
measurement.description: primary screen, population patch clamp on CHO cells stably expressing hERG; higher = less effect of the substance
Screen size: about 310,000 compounds; about 14,000 (4.5%) showed an effect of 50% or more. Effects have a minus sign here. Shown is part of a subset that was picked to be rich in strong results.
Where hERG current change (%, negative = inhibition) at 10uM equals or exceeds -10%, the correct label is TRUE; where it does not, the label is FALSE.

Cc1ccc(NC(=O)CCN2CCN(C/C=C/c3ccccc3)CC2)cc1.Cl    FALSE

Please check the record "COc1ccc(-n2ccc(=O)c3c2CCCC3=O)cc1" and state if its hERG current change (%, negative = inhibition) at 10uM is at or above -10%. TRUE

Please check the record "O=[N+]([O-])c1ccc(N(c2ccccc2)c2ccccc2)cc1" and state if its hERG current change (%, negative = inhibition) at 10uM is at or above -10%. TRUE

Please check the record CN(Cc1ccccc1)CC(O)COc1ccc(CNCCc2ccncc2)cc1 (stereo not drawn) and state if its hERG current change (%, negative = inhibition) at 10uM is at or above -10%. FALSE

Please check the record COc1ccc(CNC(C)Cc2cccs2)cc1 (stereo not drawn) and state if its hERG current change (%, negative = inhibition) at 10uM is at or above -10%. TRUE

Please check the record COCC(C)n1c(SCc2ccc(C(=O)OC)o2)nc2ccccc2c1=O (stereo not drawn) and state if its hERG current change (%, negative = inhibition) at 10uM is at or above -10%. TRUE

Please check the record CCc1cc(=O)oc2cc(C)cc(OCC(=O)NCC3CCC(C(=O)O)CC3)c12 (stereo not drawn) and state if its hERG current change (%, negative = inhibition) at 10uM is at or above -10%. TRUE

* * *

subject.of.test: human ether-à-go-go-related gene (hERG) potassium channel (human, UniProt Q12809)
Sequence (Q12809 whole entry, looked up): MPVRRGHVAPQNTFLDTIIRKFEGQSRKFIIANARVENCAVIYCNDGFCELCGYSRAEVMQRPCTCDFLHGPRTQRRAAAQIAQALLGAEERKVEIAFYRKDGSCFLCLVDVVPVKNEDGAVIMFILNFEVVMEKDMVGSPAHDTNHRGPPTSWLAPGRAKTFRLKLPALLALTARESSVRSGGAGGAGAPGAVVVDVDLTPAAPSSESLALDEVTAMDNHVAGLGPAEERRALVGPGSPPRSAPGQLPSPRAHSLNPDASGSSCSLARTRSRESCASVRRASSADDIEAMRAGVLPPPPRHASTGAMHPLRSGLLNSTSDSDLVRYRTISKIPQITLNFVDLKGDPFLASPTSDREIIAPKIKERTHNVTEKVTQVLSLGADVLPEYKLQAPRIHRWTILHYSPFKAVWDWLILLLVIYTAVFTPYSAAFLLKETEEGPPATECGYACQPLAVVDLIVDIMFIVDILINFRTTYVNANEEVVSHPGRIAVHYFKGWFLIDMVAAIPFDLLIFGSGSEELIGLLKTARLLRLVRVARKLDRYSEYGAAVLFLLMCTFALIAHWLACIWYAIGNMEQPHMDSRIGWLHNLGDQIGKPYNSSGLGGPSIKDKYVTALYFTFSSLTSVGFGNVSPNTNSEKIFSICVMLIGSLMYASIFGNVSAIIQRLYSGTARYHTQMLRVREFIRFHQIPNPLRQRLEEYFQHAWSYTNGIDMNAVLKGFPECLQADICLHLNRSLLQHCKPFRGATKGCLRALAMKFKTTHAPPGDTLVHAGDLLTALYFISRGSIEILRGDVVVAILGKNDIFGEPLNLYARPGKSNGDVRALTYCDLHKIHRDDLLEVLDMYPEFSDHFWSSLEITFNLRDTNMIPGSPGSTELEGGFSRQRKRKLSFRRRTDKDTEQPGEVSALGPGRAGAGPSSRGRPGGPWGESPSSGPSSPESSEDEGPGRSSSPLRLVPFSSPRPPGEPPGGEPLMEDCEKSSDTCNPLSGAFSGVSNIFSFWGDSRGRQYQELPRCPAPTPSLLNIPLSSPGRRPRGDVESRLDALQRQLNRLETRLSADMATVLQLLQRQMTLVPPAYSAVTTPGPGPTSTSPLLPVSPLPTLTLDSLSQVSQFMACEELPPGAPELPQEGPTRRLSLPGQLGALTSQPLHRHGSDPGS
measurement.description: primary screen, population patch clamp on CHO cells stably expressing hERG; higher = less effect of the substance
Screen size: about 310,000 compounds; about 14,000 (4.5%) showed an effect of 50% or more. Effects have a minus sign here. This is one part of a sample in which strong results are shown more often than they occur.
quantity.measured: hERG current change (%, negative = inhibition) at 10uM (%)
Numbers only, in %.

Example cases with answers are listed next.
CCN(CCNC(=O)C1CCN(S(=O)(=O)c2c(C)noc2C)CC1)c1ccccc1    -1.06
O=C(O)CSc1nc(-c2ccccc2)nc2c1CCCC2    12.8
CCOC(=O)c1c(NC(=O)COC(=O)c2ccccn2)sc(C(=O)N(C)C)c1C    4.44

Here are 3 compounds. What values of hERG current change (%, negative = inhibition) at 10uM were reported for them?
1. Nc1ccc(C(=O)N2CCN(S(=O)(=O)c3ccc(Cl)cc3)CC2)cc1[N+](=O)[O-]
2. CN(C)CCCSc1nc(-c2ccccc2)nc2c1CCC2
3. Cc1ccc(S(=O)(=O)NCCCn2ccnc2)cc1C(=O)NC(C)C

1. -46.1
2. -50.3
3. -1.56

Here are 3 compounds. What values of hERG current change (%, negative = inhibition) at 10uM were reported for them?
1. COC(=O)/C(C#N)=C\c1c(OC)[nH]c2ccccc12
2. CCOC(=O)c1c(NC(=O)COC(=O)Cc2ccccc2[N+](=O)[O-])sc(C(=O)N(C)C)c1C
3. CCSc1nc(-c2ccccc2)nc2c1CCCC2

[14, -68.9, 7.26]

Here are 2 compounds. What values of hERG current change (%, negative = inhibition) at 10uM were reported for them?
1. COc1ccc(NC(=O)CN2CCC(C(=O)c3ccc(C)cc3)CC2)c(OC)c1
2. C=CCN1C(=O)c2ccc(C(=O)N3CCN(S(=O)(=O)c4cccc(Cl)c4)CC3)cc2C1=O

1: -29.8; 2: -14.8

* * *

subject.of.test: human ether-à-go-go-related gene (hERG) potassium channel (human)
measurement.description: primary screen, population patch clamp on CHO cells stably expressing hERG; higher = less effect of the substance
Among all 310,000 compounds or so, about 14,000 (4.5%) showed an effect of 50% or more. Effects have a minus sign here. Many of the other results were omitted from the sample, so strong results are more common in it than they were.
Label scheme, based on hERG current change (%, negative = inhibition) at 10uM: lowest (below -40%), middle (-40% to below 10%), highest (10% or more)

Reference set, count: 6
CCCCCn1c(SCC(=O)OC)nc2c1c(=O)[nH]c(=O)n2C    lowest
COc1ccc(N/C=C(\C(C)=O)c2ccc(OC)c(OC)c2)cc1OC    highest
CCCCCCn1c(SCC(C)C)nc2c1c(=O)[nH]c(=O)n2C    highest
COc1cc(NS(=O)(=O)c2ccc(N/C=C(\C#N)c3nc4cc(Cl)ccc4o3)cc2)nc(OC)n1    middle
O=C1OC(C(=O)Nc2nccs2)Cc2ccccc21 (stereo not shown)    highest
CCOCCn1c(SC(C)C(C)=O)nc2c1c(=O)[nH]c(=O)n2C (stereo not shown)    lowest

Class label required: "CCCCCCn1c(SCCOC)nc2c1c(=O)[nH]c(=O)n2C" lowest

* * *

subject.of.test: human ether-à-go-go-related gene (hERG) potassium channel (human, UniProt Q12809)
measurement.description: primary screen, population patch clamp on CHO cells stably expressing hERG; higher = less effect of the substance
The whole screen tested about 310,000 compounds, of which about 14,000 (4.5%) showed an effect of 50% or more. Effects have a minus sign here. Many of the other results were omitted from the sample, so strong results are more common in it than they were.
quantity.measured: hERG current change (%, negative = inhibition) at 10uM
Numeric answer plus unit only.

CC(=O)c1cc2c(cc1NC(=O)CCc1c(C)nc3ncnn3c1C)OCO2    -10.1%
CCN(CC)CCC(c1cc(OC)c(OC)c(OC)c1)c1c(OC)cc(OC)c2c(-c3ccccc3)cc(=O)oc12 (centres unmarked)    -16.8%
Cc1ccccc1C(=O)NC1CCN(CC(=O)NCc2cccs2)CC1    6.14%
CC(C)N(C(=O)c1sc2cc([N+](=O)[O-])ccc2c1Cl)C(C)C    -13.4%

Now turn to the next compound.
Request the reported hERG current change (%, negative = inhibition) at 10uM associated with CCC(C)(C)NC(=O)C(c1ccccc1)N(Cc1cccs1)C(=O)Cn1nnc2ccccc21 (centres unmarked) 7.58%

* * *

Assign hERG current change (%, negative = inhibition) at 10uM to each entry below.
subject.of.test: human ether-à-go-go-related gene (hERG) potassium channel (human, UniProt Q12809)
measurement.description: primary screen, population patch clamp on CHO cells stably expressing hERG; higher = less effect of the substance
Experimental: Briefly, Chinese hamster ovary (CHO) cells stably expressing the hERG channel were dislodged from tissue culture flasks and dispensed into PPC plates. […] During the recording, background leak currents were estimated by a 100 ms step to -80 mV from an initial holding potential of -70 mV and subtracted from the subsequent current measurement. The campaign was conducted in two phases using slight differences in recording protocol. […]
The campaign covered roughly 310,000 compounds. About 14,000 (4.5%) showed an effect of 50% or more. Effects have a minus sign here. Only a selection was taken, and strong results are over-represented in it overall.
Give bare numbers, in %.

Cc1nn(C(=O)c2cccc([N+](=O)[O-])c2)c(C)c1Sc1ccccc1    7.61
COc1cc(S(=O)(=O)N(Cc2ccc(C)cc2)Cc2ccco2)ccc1-n1cnnn1    2.53

Now turn to the next compound.
Request the reported hERG current change (%, negative = inhibition) at 10uM associated with "O=C(OCCCc1cc2ccccc2c(=O)o1)c1ccc(F)cc1" -37.9

* * *

subject.of.test: human ether-à-go-go-related gene (hERG) potassium channel (human)
measurement.description: primary screen, population patch clamp on CHO cells stably expressing hERG; higher = less effect of the substance
Among all 310,000 compounds or so, about 14,000 (4.5%) showed an effect of 50% or more. Effects have a minus sign here. The list comes from a sample in which strong results are over-represented; it also holds close analogues and randomly drawn compounds.
Assign hERG current change (%, negative = inhibition) at 10uM to each entry below.
Numeric answer plus unit only.

Example cases with answers are listed next.
Nc1nc(-c2ccco2)nn1C(=O)CCc1ccccc1    -0.902%
COc1cccc(CN(C(=O)c2cccc(OC)c2)C2CCS(=O)(=O)C2)c1 (stereo not drawn)    -7.02%
O=C(CCCN1C(=O)c2cccnc2Oc2ccc(Cl)cc21)N1CCCCC1    -9.27%
O=C(CSc1nnc(-c2ccncc2)n1Cc1ccco1)c1ccc(Cl)cc1    -46%
Cc1cccc(C(=O)OCC(=O)c2c(N)n(CC(C)C)c(=O)n(C)c2=O)c1[N+](=O)[O-]    -29.1%

Now turn to the next compound.
Lab request: please report hERG current change (%, negative = inhibition) at 10uM under test system human ether-à-go-go-related gene (hERG) potassium channel (human) for "Cc1ccc2nc(N(CCCN(C)C)C(=O)c3ccc(S(=O)(=O)N4CCc5ccccc5C4)cc3)sc2c1.Cl" -25.3%

The reported numbers originate from paper PMC4336329.
